Protocol Details: The drug is tested on Bifidobacterium breve strain: DSM20213 for biotransformation. The drug concentrations were measured before and after a 12-h incubation by liquid-chromatography-coupled mass spectrometry (LC–MS)
Settings: 2 µM
Value Type: Bacterial Biotransformation

>>> result_value("CNC(=C[N+](=O)[O-])NCCSCc1csc(CN(C)C)n1")
"Compound metabolized"
>>> result_value("CC(CCc1ccccc1)NCC(O)c1ccc(O)c(C(N)=O)c1 (centres undefined)")
"Compound NOT metabolized"
>>> result_value("CC1OC(OC2C(O)CC(OC3C(O)CC(OC4CCC5(C)C(CCC6C5CCC5(C)C(C7=CC(=O)OC7)CCC65O)C4)OC3C)OC2C)CC(O)C1O (centres undefined)")
"Compound NOT metabolized"
>>> result_value("CC(C(=O)O)c1ccc2c(c1)Cc1cccnc1O2 (centres undefined)")
"Compound metabolized"
>>> result_value("COc1ccc(Cc2nccc3cc(OC)c(OC)cc23)cc1OC")
"Compound NOT metabolized"
>>> result_value("COc1ccccc1OCC(O)COC(N)=O (centres undefined)")
"Compound NOT metabolized"
>>> result_value("N#Cc1ccc(C(c2ccc(C#N)cc2)n2cncn2)cc1")
"Compound NOT metabolized"
>>> result_value("CC(C)[C@H]1CC[C@H](C(=O)N[C@H](Cc2ccccc2)C(=O)O)CC1 [NATEGLINIDE]")
"Compound NOT metabolized"
>>> result_value("COCCc1ccc(OCC(O)CNC(C)C)cc1.COCCc1ccc(OCC(O)CNC(C)C)cc1.O=C(O)C(O)C(O)C(=O)O (centres undefined) [METOPROLOL TARTRATE]")
"Compound NOT metabolized"
